Test system: HT29 colon
Assay: NCI-60 one-dose screen, 48 h
Conditions: 10 µM unless noted
About 83,000 compounds went through this panel and 20% of them were active in at least one assay; those are over-represented in the sample as a whole. Calls of active or inactive are those of the source. How the source made its calls: active means growth percent below 10; inactive means the rest.
Select the correct class. Options are active, inactive and nothing else.

-- ask Record request — test call for COc1cc2nc(-c3ccc(C)cc3)cc(OCCCNCC3CCCO3)c2cc1OC (stereo not given)
-- reply inactive

-- ask Test call for this molecule, please: `CS(=O)(=O)c1ccc(-c2nc3ccccn3c2-c2nc3ccc([N+](=O)[O-])cc3[nH]2)cc1`
-- reply inactive

-- ask Hi team, can someone confirm the assay call for COc1cc(OC)c(C2C(Cl)C(=O)N2Nc2ncnc3ccccc23)cc1OC (stereo not given) ?
-- reply inactive

-- ask // param item: `OC1CCN(CCCOc2c3ccc(Cl)cc3nc3c2oc2ccc(Cl)cc23)CC1` ; yields the recorded call
-- reply active

-- ask Just curious, what result did `COc1cc(-c2nc3ccc(-c4nnc(SCC(=O)Nc5ccc(C(C)=O)cc5)o4)cc3[nH]2)cc(OC)c1OC` get here?
-- reply inactive

-- ask Which outcome did this test record for the molecule `O=C1Nc2cc(Cl)ccc2/C1=C\c1ccc(OCc2ccc(Br)cc2F)cc1` ?
-- reply active

-- ask Recorded test call requested for `C=CCSc1ccc2c(c1)C(N1CCNCC1)=Nc1ccccc1O2`
-- reply inactive

-- ask Per the records of this test, what outcome belongs to `COc1ccccc1C(=O)CSc1nc(Nc2ccc(S(N)(=O)=O)cc2)c2ccccc2n1` ?
-- reply inactive

-- ask // param item: `CCOC(=O)c1csc(NC(=O)CSc2nc3sc4c(c3c(=O)n2-c2ccc(Cl)cc2)CCCC4)n1` ; yields the recorded call
-- reply inactive

-- ask Assay outcome for `[Cl][Ru].c1ccc(-c2cccc(-c3ccccn3)n2)nc1.c1ccc(-c2ccnc3c2ccc2c(-c4ccccc4)ccnc23)cc1` : what was it?
-- reply inactive

-- ask I'd appreciate the recorded outcome for `CC(C)(C)Nc1nc2c(OCCc3ccccc3)cccn2c1-c1ccccc1Cl` from this test.
-- reply active

-- ask Dear all, I need the recorded test outcome for `COc1cccc(NC2=CC(=O)C(C)=C(C)C2=O)c1` , thank you.
-- reply inactive

-- ask What classification did `Clc1ccc2oc3c(NCCCn4ccnc4)c4ccccc4nc3c2c1` end up with in this test?
-- reply active

-- ask Identify the outcome logged in this assay for the molecule shown: `C/C(=N\NC(N)=O)c1c(O)sc(=O)[nH]c1=O`
-- reply inactive

-- ask Dear all, I need the recorded test outcome for `CN(C)CCCOc1c2ccc(Cl)cc2nc2c1oc1ccccc12` , thank you.
-- reply active

-- ask // param item: O=C(c1ccc(O)cc1)C1[C@H](c2ccc(Cl)cc2)[C@@H](c2ccccc2)NC12C(=O)Nc1ccc(Cl)cc12 (stereo not given in full) ; yields the recorded call
-- reply active

-- ask Please share the test call associated with `CN(C)CCCNc1c2ccc(Cl)cc2nc2c1oc1ccc(Cl)cc12` .
-- reply active

-- ask I would be grateful if you could indicate the recorded call for `Oc1c(Cl)cc(Cl)c2ccc(CN3CCCCC3)nc12` .
-- reply inactive

-- ask Lab log entry: `Cc1ccc2c(n1)C(=O)C(Cl)=C(Nc1cccc(C(C)C)c1)C2=O` — outcome as called in the assay?
-- reply inactive

-- ask Hello, I am checking results. What call was entered for `COc1cc(/C=C/C(=O)c2cc(OC)c(OC)c(OC)c2)ccc1Oc1nc(NCCO)nc(N2CCOCC2)n1` ?
-- reply active
